assayed.target: H1047R PIK3CA enzyme (Homo sapiens, UniProt P42336, H1047R)
Sequence (P42336 whole entry H1047R): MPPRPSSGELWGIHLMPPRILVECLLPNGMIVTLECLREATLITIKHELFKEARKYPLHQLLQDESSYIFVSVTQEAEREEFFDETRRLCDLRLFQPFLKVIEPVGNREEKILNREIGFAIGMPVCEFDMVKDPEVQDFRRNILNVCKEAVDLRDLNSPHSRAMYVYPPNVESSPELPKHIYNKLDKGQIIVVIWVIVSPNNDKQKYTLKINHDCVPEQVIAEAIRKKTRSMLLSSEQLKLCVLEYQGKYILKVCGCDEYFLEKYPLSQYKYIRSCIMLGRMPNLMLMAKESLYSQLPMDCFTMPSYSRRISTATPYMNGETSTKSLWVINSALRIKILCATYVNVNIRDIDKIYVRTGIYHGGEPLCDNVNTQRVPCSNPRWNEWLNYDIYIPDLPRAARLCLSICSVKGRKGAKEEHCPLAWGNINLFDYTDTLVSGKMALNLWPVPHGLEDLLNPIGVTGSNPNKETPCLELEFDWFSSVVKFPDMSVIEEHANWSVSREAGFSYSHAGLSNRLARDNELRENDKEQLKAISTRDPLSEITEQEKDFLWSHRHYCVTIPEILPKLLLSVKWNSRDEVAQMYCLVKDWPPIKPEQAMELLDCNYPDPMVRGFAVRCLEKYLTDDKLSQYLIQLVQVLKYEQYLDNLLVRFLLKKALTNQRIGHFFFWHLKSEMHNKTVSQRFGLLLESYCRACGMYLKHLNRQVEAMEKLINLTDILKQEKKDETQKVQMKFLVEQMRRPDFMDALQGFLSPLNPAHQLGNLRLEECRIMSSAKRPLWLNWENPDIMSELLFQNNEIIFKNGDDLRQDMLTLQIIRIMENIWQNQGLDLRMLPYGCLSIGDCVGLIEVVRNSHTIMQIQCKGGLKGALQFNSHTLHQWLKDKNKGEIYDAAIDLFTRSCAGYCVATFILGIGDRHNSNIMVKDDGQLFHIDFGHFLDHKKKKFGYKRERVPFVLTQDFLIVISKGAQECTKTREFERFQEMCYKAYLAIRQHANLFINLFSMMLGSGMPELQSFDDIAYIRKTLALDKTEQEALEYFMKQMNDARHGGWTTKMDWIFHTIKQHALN
Sequence (P27986 whole entry partner): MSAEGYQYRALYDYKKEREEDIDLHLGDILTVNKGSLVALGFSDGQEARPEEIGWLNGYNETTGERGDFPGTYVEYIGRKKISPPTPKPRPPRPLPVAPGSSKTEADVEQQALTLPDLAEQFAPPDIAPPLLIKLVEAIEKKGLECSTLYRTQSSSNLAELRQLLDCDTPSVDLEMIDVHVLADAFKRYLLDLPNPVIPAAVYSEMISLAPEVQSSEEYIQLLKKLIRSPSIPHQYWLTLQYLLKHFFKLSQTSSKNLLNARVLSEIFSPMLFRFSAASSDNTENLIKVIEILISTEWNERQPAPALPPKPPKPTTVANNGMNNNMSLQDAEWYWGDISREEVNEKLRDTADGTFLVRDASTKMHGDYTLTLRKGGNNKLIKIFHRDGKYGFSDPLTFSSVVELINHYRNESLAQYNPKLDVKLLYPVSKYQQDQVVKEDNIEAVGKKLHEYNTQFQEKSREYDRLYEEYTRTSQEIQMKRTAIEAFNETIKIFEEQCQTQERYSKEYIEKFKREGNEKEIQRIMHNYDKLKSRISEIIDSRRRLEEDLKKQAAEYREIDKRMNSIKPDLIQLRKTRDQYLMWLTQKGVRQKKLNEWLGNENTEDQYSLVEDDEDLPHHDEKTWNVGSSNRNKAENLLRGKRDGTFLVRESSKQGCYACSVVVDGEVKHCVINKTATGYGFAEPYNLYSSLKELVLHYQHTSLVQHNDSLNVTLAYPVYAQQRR
test.description: ADP-Glo Biochemical PIK3CA Kinase Assay
assay.endpoint: IC50

molecule | reading
Cc1ccccc1C1NC(=O)c2cccc(NC(=O)c3cccc(F)c3)c21 (stereo not shown) | 1000 to 10000 nM
O=C1N[C@H](c2cc(F)ccc2Cl)c2c(NC(=O)N3C[C@@H](O)C[C@@H]3CC(F)(F)F)cccc21 (racemic) | 10000 to 100000 nM
O=C(Nc1cc(-c2cccnc2C(F)(F)F)cc2c1C(c1cc(F)ccc1Cl)NC2=O)c1cc(F)cc(C(F)(F)F)c1 (stereo not shown) | ≤ 100 nM

Lookup: Identify measured IC50 associated with Cc1ccccc1C1NC(=O)c2cccc(NC(=O)N3CC(C)c4ccccc43)c21 (stereo not shown)
Found: 100 to 500 nM
